# testSystem: Vasopressin V1b receptor (Homo sapiens, UniProt P47901)
# Sequence (P47901 whole entry): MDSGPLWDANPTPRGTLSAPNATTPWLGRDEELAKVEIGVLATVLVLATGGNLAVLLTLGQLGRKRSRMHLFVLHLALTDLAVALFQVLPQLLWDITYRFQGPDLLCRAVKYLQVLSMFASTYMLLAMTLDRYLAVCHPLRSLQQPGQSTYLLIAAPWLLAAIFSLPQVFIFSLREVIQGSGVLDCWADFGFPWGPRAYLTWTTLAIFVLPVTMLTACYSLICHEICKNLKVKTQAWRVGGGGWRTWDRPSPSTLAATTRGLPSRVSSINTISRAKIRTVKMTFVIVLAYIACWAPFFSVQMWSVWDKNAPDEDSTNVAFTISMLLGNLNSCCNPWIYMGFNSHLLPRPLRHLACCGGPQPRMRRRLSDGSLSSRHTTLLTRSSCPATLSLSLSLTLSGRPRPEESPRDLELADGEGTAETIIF
# assayExplanation: Agonist activity at recombinant human vasopressin V1b receptor expressed in Flp-In-293 cells by luciferase reporter gene assay
# Type: functional, cell-based
# particulars: read-out: EC50
Numbered stars: 1 amine (or outer) side, 2 acyl side, 3 side chain; on linkers, the order of the positions; unused ones are H or OH. Bridge positions count the residues as written; N and C are the ends. Square brackets hold non-standard residues; d marks the D form. Peptide text beside a SMILES is read from it. * marks the point of attachment. Orn(iPr) = CC(C)NCCC[C@H](N)C(=O)O; X1 = CCNCCC[C@H](N[*:1])C(=O)[*:2]; 2Thi = N[C@@H](Cc1cccs1)C(=O)O; NHCH(CH2OH)2 = OCC(CO)N*; Orn = NCCC[C@H](N)C(=O)O
Rule: measured EC50 below 60 nM gets class 1; anything equal to or greater than 60 nM gets class 0.

Known results for compounds:
# compound, labelClass
records = [
    ("CC[C@H](C)[C@@H]1NC(=O)[C@H](Cc2ccccc2)NC(=O)[C@@H](N)CSSC[C@@H](C(=O)N2CCC[C@H]2C(=O)N[C@@H](CCCN)C(=O)NCC(N)=O)NC(=O)[C@H](CC(N)=O)NC(=O)[C@H](CC(=O)NC(CO)CO)NC1=O (H-CFID(NHCH(CH2OH)2)NCP[Orn]G-NH2; disulfide 1-6)", "class 0"),
    ("CC[C@H](C)[C@@H]1NC(=O)[C@H](Cc2ccc(O)cc2)NC(=O)[C@@H](N)CSSC[C@@H](C(=O)N2CCC[C@H]2C(=O)N[C@@H](CCCN)C(=O)NCC(N)=O)NC(=O)[C@H](CC(N)=O)NC(=O)[C@H](CCC(N)=O)NC1=O", "class 1"),
    ("CCNCCC[C@H](NC(=O)[C@@H]1CCCN1C(=O)[C@@H]1CSSC[C@H](N)C(=O)N[C@@H](Cc2ccccc2)C(=O)N[C@@H]([C@@H](C)CC)C(=O)N[C@@H](CCC(N)=O)C(=O)N[C@@H](CC(N)=O)C(=O)N1)C(=O)NCC(N)=O (H-CFIQNCP[X1]G-NH2; disulfide 1-6)", "class 1"),
]

Could you now look at the following compound, please?
Query block: Given the entry CC[C@H](C)[C@@H]1NC(=O)[C@H](Cc2cccs2)NC(=O)[C@@H](N)CSSC[C@@H](C(=O)N2CCC[C@H]2C(=O)N[C@@H](CCCNC(C)C)C(=O)NCC(N)=O)NC(=O)[C@H](CC(N)=O)NC(=O)[C@H](CCC(N)=O)NC1=O (H-C[2Thi]IQNCP[Orn(iPr)]G-NH2; disulfide 1-6) , would its reported EC50 be below 60 nM?
Result block: class 0
